Kd overview
- assayTarget: T1, Human LRP6-Fc (R&D Systems), recombinant human LRP6 containing the complete extracellular domain (human, UniProt O75581 20-1370)
- T1 construct: Bought protein; also called hLRP6; Fc-antigen; not shown: Fc part of the bought fusion protein
- T1 sequence: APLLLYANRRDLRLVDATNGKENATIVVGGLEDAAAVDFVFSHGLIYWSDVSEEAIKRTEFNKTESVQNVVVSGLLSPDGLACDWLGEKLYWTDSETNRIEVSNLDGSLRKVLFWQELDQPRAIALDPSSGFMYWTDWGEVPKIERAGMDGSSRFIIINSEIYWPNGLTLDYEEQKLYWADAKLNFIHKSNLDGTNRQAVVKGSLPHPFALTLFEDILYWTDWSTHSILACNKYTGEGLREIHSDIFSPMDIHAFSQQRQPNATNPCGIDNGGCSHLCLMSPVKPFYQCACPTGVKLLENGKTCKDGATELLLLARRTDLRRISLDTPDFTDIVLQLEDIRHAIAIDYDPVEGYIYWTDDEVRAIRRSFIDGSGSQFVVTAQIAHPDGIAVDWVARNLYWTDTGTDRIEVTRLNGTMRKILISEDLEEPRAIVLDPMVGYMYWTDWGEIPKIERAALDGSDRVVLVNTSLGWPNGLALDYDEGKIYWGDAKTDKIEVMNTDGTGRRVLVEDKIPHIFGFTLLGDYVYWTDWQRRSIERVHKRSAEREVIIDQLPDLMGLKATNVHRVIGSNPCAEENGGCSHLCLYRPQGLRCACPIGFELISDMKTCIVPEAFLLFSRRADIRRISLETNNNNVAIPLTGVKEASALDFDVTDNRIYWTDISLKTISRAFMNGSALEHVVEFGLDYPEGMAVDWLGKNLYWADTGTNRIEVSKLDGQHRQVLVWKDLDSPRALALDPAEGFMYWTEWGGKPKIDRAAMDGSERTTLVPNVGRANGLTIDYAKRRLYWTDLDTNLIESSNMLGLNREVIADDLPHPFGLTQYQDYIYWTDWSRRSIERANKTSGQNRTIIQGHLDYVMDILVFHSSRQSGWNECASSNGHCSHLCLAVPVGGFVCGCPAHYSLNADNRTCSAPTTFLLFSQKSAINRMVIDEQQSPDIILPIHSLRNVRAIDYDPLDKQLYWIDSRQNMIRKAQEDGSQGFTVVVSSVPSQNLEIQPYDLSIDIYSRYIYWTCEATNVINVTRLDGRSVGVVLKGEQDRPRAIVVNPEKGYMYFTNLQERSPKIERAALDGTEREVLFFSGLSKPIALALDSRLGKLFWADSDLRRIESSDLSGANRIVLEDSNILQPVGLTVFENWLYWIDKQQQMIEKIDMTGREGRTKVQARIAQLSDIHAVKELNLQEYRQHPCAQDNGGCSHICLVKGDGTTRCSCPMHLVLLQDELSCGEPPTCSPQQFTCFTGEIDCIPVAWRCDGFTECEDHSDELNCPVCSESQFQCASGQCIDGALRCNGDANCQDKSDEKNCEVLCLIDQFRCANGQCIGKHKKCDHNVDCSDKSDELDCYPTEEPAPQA
- protocolDetails: SPR (BIAcore), mAb captured on anti-mouse chip, Fc-antigen injected, 1:1 model
Give just the number in nM; leave the unit off.

Consider the following illustrative entries.
Please report Kd for the following binder: anti-LRP6 monoclonal antibody 931.1 (antibody, V domains shown, Murine hybridoma mAb, protein G purified; also called VH13/VL13) VH: DVNLVESGGGLVKLGGSLKLSCAASGFTFSSFYMSWVRQTPEKRLDLVATINTNGGSTYYSDTVKGRFTISRDNAKNTLYLQMNSLKSEDTALFYCVRQPYYGGTMDYWGQGTSVTVSS VL: DIVLTQSPATLSVTPGDRVSLSCRASQSINNNLHWYQQKSHESPRLLIKYASQSISGIPSRFSGSGSGTDFTLSINSVETEDFGMYFCQQTNNWPLTFGAGTKLEL
1.12

Let me know recorded Kd for anti-LRP6 monoclonal antibody 1433.8 (antibody, V domains shown, Murine hybridoma mAb, protein G purified; also called VH21/VL21) VH: QVQLQQSGAELAKPGASVKMSCKASGYTFTSYWMHWVKQRPGQGLEWIGYINPSTGYTEYNQKFRDKATLTADKSSSTANMQLSSLTSEDSAVYYCTRTAQYYGSPRGYYAMDSWGQGTSVTVSS VL: MTQAAFSNPVTLGTSASISCRSSKSLLHSNGITYLCWFLQKPGQSPQLLIYLMSNLASGVPDRFSSSGSGTDFTLRISRVEAEDVGVYFCAQNLDLPWTFGGGTKLEI , thanks.
1.68

# input for lookup
// fetch Kd given entry anti-LRP6 monoclonal antibody 1115.3 (antibody, V domains shown, Murine hybridoma mAb, protein G purified; also called VH16/VL16) VH: DVKLVESGGGLVKLGGSLRLSCAASGFSFSTSYMSWVRQTPEKRLELVAAINLNGGSTYYSDTVKGRFTISRDNAKNTLYLQMSSLKSEDTAFYYCASELAGYGTPFAYWGQGTLVTVSA VL: DIVLTQSPATLSVTPGDSVSLSCKASQSISNNLHWYQQKSHESPRLLIKYTSQSISGIPSRFSGSGSGTDFTLTINNVETEDFGMYFCQQSNSWPLTFGAGTKLEV
1.45
